Target: recombinant human MAO-B (monoamine oxidase-B) (Homo sapiens, UniProt P27338)
Construct: purchased Sigma-Aldrich
Sequence (P27338 1-520): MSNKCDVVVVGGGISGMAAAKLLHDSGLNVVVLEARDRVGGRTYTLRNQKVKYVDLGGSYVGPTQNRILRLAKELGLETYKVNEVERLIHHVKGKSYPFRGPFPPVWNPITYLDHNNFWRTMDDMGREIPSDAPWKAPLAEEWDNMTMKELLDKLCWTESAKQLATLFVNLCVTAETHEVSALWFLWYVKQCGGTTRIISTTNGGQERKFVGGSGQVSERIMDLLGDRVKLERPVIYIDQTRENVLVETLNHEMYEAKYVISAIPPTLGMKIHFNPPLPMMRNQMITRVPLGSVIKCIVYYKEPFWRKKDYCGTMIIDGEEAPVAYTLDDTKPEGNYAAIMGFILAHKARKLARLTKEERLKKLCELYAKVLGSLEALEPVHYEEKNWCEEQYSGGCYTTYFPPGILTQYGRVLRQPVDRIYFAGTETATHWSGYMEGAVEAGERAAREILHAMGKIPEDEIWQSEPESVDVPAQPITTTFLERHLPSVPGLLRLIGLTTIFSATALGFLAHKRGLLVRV
Test: Activity on recombinant human MAO-B, Amplex Red method, 1 mM benzylamine substrate
Format: biochemical
Conditions: 1 mM benzylamine, read-out: Inhibitory Activity (IC50, nM) MAO-B
Counter-ions that a name gives are not always drawn.
Parameter IC50: see the listing below.

compound: CC(=O)Nc1ccc(-c2cc(C)c(-n3cnn(C/C(=C/F)CN)c3=O)cn2)cc1
IC50: > 10000 nM

compound: Cc1cc(-c2ccc(S(C)(=O)=O)cc2)cnc1-n1cnn(C/C(=C/F)CN)c1=O [Example 133, hydrochloride]
IC50: > 10000 nM

compound: CC(=O)Nc1cc(-c2cccc(-n3cnn(C/C(=C\F)CN)c3=O)c2)ccn1 [Example 80, hydrochloride]
IC50: > 10000 nM

compound: NC/C(=C\F)Cn1ncn(-c2ccc(-c3ccc4nonc4c3)cc2F)c1=O [Example 46, hydrochloride]
IC50: < 10 nM

compound: CC(=O)c1ccc(-c2ccc(-n3cnn(C/C(=C\F)CN)c3=O)cc2)s1 [Example 42, hydrochloride]
IC50: < 0.01 nM

-- ask Please give measured IC50 of the following entry: NC/C(=C\F)Cn1ncn(-c2cccc(-c3ccc(-c4nnc[nH]4)cc3)c2)c1=O
-- reply > 10000 nM

-- ask Please give measured IC50 of the following entry: NC/C(=C\F)Cn1ncn(-c2cccc(-c3ccc(C(=O)N4CCOCC4)cc3)c2)c1=O [Example 78, hydrochloride]
-- reply > 10000 nM

-- ask Please give measured IC50 of the following entry: Cc1cc(-c2ccc(C(=O)N3CCOCC3)cc2)cnc1-n1cnn(C/C(=C/F)CN)c1=O [Example 146, hydrochloride]
-- reply > 10000 nM

-- ask Please give measured IC50 of the following entry: NC/C(=C\F)Cn1ncn(-c2cccc(Br)n2)c1=O
-- reply > 10000 nM

-- ask Please give measured IC50 of the following entry: Cc1cc(-c2cccc(-n3cnn(C/C(=C/F)CN)c3=O)c2)cc2c1NC(=O)CC2 [Example 102, hydrochloride]
-- reply > 10000 nM

###

molecular target: recombinant human DAO (diamine oxidase) (Homo sapiens); construct: purchased R&D systems; assay: Activity on recombinant human DAO, Amplex Red method, 1 mM putrescine substrate; type: biochemical; conditions: recombinant human DAO, 1 mM putrescine; * = between 10 and 100 nM, ** = between 300 and 1000 nM; read-out: Inhibitory Activity (IC50, nM) DAO
Sequence (P19801 20-751): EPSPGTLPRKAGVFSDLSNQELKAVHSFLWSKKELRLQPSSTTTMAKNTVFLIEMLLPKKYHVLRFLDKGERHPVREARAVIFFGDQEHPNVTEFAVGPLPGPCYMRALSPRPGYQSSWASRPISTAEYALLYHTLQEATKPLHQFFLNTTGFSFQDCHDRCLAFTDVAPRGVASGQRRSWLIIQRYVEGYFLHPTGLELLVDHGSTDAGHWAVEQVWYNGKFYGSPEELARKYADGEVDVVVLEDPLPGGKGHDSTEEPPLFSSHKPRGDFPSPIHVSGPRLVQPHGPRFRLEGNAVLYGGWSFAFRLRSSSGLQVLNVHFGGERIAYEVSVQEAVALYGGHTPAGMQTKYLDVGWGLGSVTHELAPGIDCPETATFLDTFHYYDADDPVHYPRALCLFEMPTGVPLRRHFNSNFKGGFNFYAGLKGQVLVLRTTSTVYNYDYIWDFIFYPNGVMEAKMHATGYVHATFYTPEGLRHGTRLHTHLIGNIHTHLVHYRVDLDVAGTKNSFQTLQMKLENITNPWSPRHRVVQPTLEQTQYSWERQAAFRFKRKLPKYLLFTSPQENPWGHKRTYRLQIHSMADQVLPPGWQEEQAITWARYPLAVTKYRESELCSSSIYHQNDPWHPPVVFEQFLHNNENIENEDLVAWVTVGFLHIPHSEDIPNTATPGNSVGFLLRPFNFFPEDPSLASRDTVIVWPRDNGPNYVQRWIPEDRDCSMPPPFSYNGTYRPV
Counter-ions that a name gives are not always drawn.
value-kind: IC50

-- ask Please give measured IC50 of the following entry: NC/C(=C\F)Cn1ncn(-c2cccc(-c3ccc(N4CCOCC4)c(F)c3)c2)c1=O [Example 75, hydrochloride]
-- reply < 100 nM
